- Tested on: TK-10 renal
- assayOverview: NCI tumour cell line growth inhibition, 48 h
measurementLabel: TGI (µM)
The figure you give is taken to be in µM; do not add the unit.

// query API: value(readout=TGI, system=TK-10 renal) for record O=C(c1cccs1)c1c(C(F)(F)F)n([O-])c2ccc(C(F)(F)F)cc2[n+]1=O
// result 1.31

// query Observed TGI on TK-10 renal for CC(=O)Oc1c(C)n(CCCl)ccc1=O , please.
// result 73.8

// query What is its TGI for TK-10 renal? Entry: CCCCCCCCCCCCc1ccc(C(=O)/C=C/C(=O)O)cc1
// result 3.64

// query Given the entry O=C1C=C[C@]2(C[C@@H](c3cccc(C(F)(F)F)c3)O[C@@H](c3cccc(C(F)(F)F)c3)O2)O1 , what TGI was observed with TK-10 renal?
// result 3.22

// query Give recorded TGI with TK-10 renal for the following compound: O=C(NCCN1C(=O)CN=C(c2ccc(Cl)cc2)c2cc(Cl)ccc21)OCc1ccccc1
// result 37.3

// query Report TGI for Clc1ccccc1/C=C/c1nsc(/C=C/c2ccccc2Cl)n1 tested on TK-10 renal.
// result 78.1

// query For TK-10 renal, provide TGI of COc1ccc(/C(=C/c2cc(OC)c(OC)c(OC)c2)[N+](=O)[O-])cc1 please.
// result 3.59

// query # value lookup — system TK-10 renal, readout TGI, item C[C@H]1[C@H](OC(=O)CCC(=O)O)O[C@@H]2O[C@]3(C)CC[C@H]4[C@H](C)CC[C@@H]1[C@@]24OO3
// result 11.6

// query Request: TGI, test system TK-10 renal, entry O=C(Cc1ccccc1)NN1C(=O)C(Cl)C1c1cccc(O)c1 (configuration not stated)
// result 34.1

// query State its TGI on TK-10 renal: Cc1ccc(S(=O)(=O)NC(CCC(=O)Nc2ccc(Cl)cc2)C(=O)Nc2ccc(Cl)cc2)cc1 (configuration not stated)
// result 10

// query What value of TGI on TK-10 renal does CC1=C(C(=O)Nc2ccc([N+](=O)[O-])cc2)C(c2ccco2)C(C(=O)Nc2ccc([N+](=O)[O-])cc2)=C(C)N1 have?
// result 94.3

// query Request: TGI, test system TK-10 renal, entry O=C1C2CC(Cl)C(SSC3CC4C(=O)N(SC(Cl)(Cl)C(Cl)Cl)C(=O)C4CC3Cl)CC2C(=O)N1SC(Cl)(Cl)C(Cl)Cl (configuration not stated)
// result 7.07

// query API: value(readout=TGI, system=TK-10 renal) for record CC(C)(C)c1cc(C(=O)/C=C/c2ccc(O)c(O)c2O)cc(C(C)(C)C)c1O
// result 18.3

// query Form field: TGI recorded for NCC(O)CNCC/C=C\C/C=C\C/C=C\C/C=C\C/C=C\C/C=C\CCCCC/C=C\CCNCC(O)CN (configuration not stated) with TK-10 renal (enter value)
// result 2.96

// query What value of TGI on TK-10 renal does O=[N+]([O-])c1ccc(N/N=C\c2cc(Cl)ccc2O)nc1 have?
// result 23.6

// query Provide value of TGI for this record tested with TK-10 renal: CC(=O)O[C@H]1C(=O)[C@@]2(C)C([C@H](OC(=O)c3ccccc3)[C@]3(O)C[C@H](OC(=O)[C@H](O)[C@H](NC(=O)c4ccccc4)c4ccc(Cl)cc4)C(C)=C1C3(C)C)C1(OC(C)=O)CO[C@@H]1C[C@@H]2O (some centres not stated)
// result 14.4
